This section presents molecules with their documented IC50 values.
Target: hAT1R (Homo sapiens)
Sequence (P30556 1-359): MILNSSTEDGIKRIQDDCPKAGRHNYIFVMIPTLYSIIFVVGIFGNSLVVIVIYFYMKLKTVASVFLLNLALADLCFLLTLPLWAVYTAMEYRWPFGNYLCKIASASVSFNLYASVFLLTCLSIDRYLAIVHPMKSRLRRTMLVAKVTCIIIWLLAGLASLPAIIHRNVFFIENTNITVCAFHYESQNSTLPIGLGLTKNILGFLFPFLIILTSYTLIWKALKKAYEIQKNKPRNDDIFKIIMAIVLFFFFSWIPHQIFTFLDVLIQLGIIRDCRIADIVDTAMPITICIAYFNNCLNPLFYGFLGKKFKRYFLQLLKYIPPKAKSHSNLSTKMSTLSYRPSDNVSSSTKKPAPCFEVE
Test: FLIPR calcium flux assay, Part II: antagonist activity against Angiotensin II
Format: cell-based
Details: read-out: hAT1R Antagonist IC50 Ave
Starred links: 1 amine or outer side, 2 acyl side, 3 side chain; linkers in the order of their positions; H or OH if unused. Non-standard residues stand in square brackets, D forms with d. Residues, ends and D or L forms follow the SMILES beside them. X1 = O=C(CN(C[C@H](O)[C@@H](O)[C@H](O)[C@H](O)CO)[*:1])[*:2]; dPhe(2-Ph) = N[C@H](Cc1ccccc1-c1ccccc1)C(=O)O; dPhe(2-Me) = Cc1ccccc1C[C@@H](N)C(=O)O; dBta = N[C@H](Cc1csc2ccccc12)C(=O)O; Gly(cPent) = N[C@H](C(=O)O)C1CCCC1; Chg = N[C@H](C(=O)O)C1CCCCC1
Supply the numeric figure in nM, leaving out any unit text.

Guide cases for IC50, answers given:
>>> measurement("CNCC(=O)N[C@@H](CCCNC(=N)N)C(=O)N[C@H](C(=O)N[C@@H](Cc1ccc(O)cc1)C(=O)N[C@H](C(=O)N[C@@H](Cc1c[nH]cn1)C(=O)N1CCC[C@H]1C(=O)N[C@H](Cc1cccc2ccccc12)C(=O)O)C1CCCC1)C(C)C [Compound 15, Sar-Arg-Val-Tyr-Cpg-His-Pro-(D-1Nal)-OH] (HELM PEPTIDE1{[Sar].R.V.Y.[O=C([C@@H](N[*:1])C1CCCC1)[*:2]].H.P.[O=C(O)[C@@H](Cc1cccc2ccccc12)N[*:1]]}$$$$V2.0)")
4.6
>>> measurement("CC[C@H](C)[C@H](NC(=O)[C@H](Cc1ccc(O)cc1)NC(=O)[C@@H](NC(=O)[C@H](CCCNC(=N)N)NC(=O)CNC)C(C)C)C(=O)N[C@@H](Cc1c[nH]cn1)C(=O)N1CCC[C@H]1C(=O)N[C@H](Cc1ccccc1)C(=O)O [Ref. Cpd. 2, Sar-Arg-Val-Tyr-Ile-His-Pro-D-Phe-OH, reference compound]")
14.3
>>> measurement("CC(C)[C@H](NC(=O)[C@H](CCCNC(=N)N)NC(=O)CNC[C@H](O)[C@@H](O)[C@H](O)[C@H](O)CO)C(=O)N[C@@H](Cc1ccc(O)cc1)C(=O)N[C@H](C(=O)N[C@@H](Cc1c[nH]cn1)C(=O)N1CCC[C@H]1C(=O)N[C@H](Cc1csc2ccccc12)C(=O)O)C1CCCCC1 [Compound 41] (H-[X1]RVY[Chg]HP[dBta]-OH)")
19.1
>>> measurement("Cc1ccccc1C[C@@H](NC(=O)[C@@H]1CCCN1C(=O)[C@H](Cc1c[nH]cn1)NC(=O)[C@@H](NC(=O)[C@H](Cc1ccc(O)cc1)NC(=O)[C@@H](NC(=O)[C@H](CCCNC(=N)N)NC(=O)CNC[C@H](O)[C@@H](O)[C@H](O)[C@H](O)CO)C(C)C)C1CCCC1)C(=O)O [Compound 44] (H-[X1]RVY[Gly(cPent)]HP[dPhe(2-Me)]-OH)")
20.4
>>> measurement("CNCC(=O)N[C@@H](CCCNC(=N)N)C(=O)N[C@H](C(=O)N[C@@H](Cc1ccc(O)cc1)C(=O)N[C@H](C(=O)N[C@@H](Cc1c[nH]cn1)C(=O)N1CCC[C@H]1C(=O)N[C@H](Cc1ccccc1Cl)C(=O)O)C(C)C)C(C)C [Compound 4] (HELM PEPTIDE1{[Sar].R.V.Y.V.H.P.[O=C(O)[C@@H](Cc1ccccc1Cl)N[*:1]]}$$$$V2.0)")
10.7

Consider the additional molecule presented here.
Query: Lab note: hAT1R (Homo sapiens) assay, enter IC50 for CC(C)[C@H](NC(=O)[C@H](CCCNC(=N)N)NC(=O)CNC[C@H](O)[C@@H](O)[C@H](O)[C@H](O)CO)C(=O)N[C@@H](Cc1ccc(O)cc1)C(=O)N[C@H](C(=O)N[C@@H](Cc1c[nH]cn1)C(=O)N1CCC[C@H]1C(=O)N[C@H](Cc1ccccc1-c1ccccc1)C(=O)O)C1CCCCC1 [Compound 42] (H-[X1]RVY[Chg]HP[dPhe(2-Ph)]-OH) here
Response: 28.5

Value source: patent US10344054B2
